B1: HDV Ribozyme (parent)
chain: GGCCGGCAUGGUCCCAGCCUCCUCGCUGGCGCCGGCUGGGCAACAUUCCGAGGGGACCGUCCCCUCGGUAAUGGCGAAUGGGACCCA

# Variants of: B1
# assay-overview: self-cleavage, relative activity (ratio to wild type); higher = more cleavage; co-transcriptional

mutation-id: C22A U46C
self-cleavage: 0.0692

mutation-id: G68A C84A
self-cleavage: 0.817

mutation-id: G67A G81C
self-cleavage: 0.117

mutation-id: C3A
self-cleavage: 0.641

mutation-id: G17U A71C
self-cleavage: 0.383

mutation-id: U20A A51G
self-cleavage: 0

mutation-id: C4G U20A
self-cleavage: 0.0536

mutation-id: C26A U46A
self-cleavage: 0.77

mutation-id: C14A C62G
self-cleavage: 0.582

mutation-id: G2U C22G
self-cleavage: 0.0193

mutation-id: A8G G74A
self-cleavage: 0.256
